# credit: PubChem BioAssay AID1159580

# protocol_details: chemical genetic growth profiling, strain panel (AID 1159580);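 further: tested at 20 µM; growth read once vehicle control cultures reached saturation at 30 °C; 1 = growth at the plate median or of vehicle wells; lower values mean less growth of the strain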
# condition_parameters: S. cerevisiae deletion strains, growth OD, locus YNL153C, strain GIM3, hits give low values
The whole screen tested about 5,500 compounds, of which about 2,000 (36%) were called active. About 18% were inconclusive and are not listed. This is one part of the list.
value_type: normalized growth

> print(dat)
                         structure.as.smiles  value
 1  Cc1c(S(=O)(=O)c2ccc(Cl)cc2)csc1S(=O)(=O)N/N=C\c1c(Cl)cccc1Cl      1
 2                    c1ccc2c(c1)CN1CCCC1=N2      1
 3             Cc1cscc1S(=O)(=O)c1ccc(Cl)cc1  0.945
 4  O=C1NC(c2cccc([N+](=O)[O-])c2)=CCN1c1ccccc1O   1.05
 5  Cc1c(S(=O)(=O)c2ccc(Cl)cc2)csc1C(=O)Nc1ccc(N2CCOCC2)c(Cl)c1   1.06
 6  O=C(CSc1nnc(NC(=O)c2cccc([N+](=O)[O-])c2)s1)Nc1ccc2c(c1)OCO2   1.01
 7                    S=P(N1CC1)(N1CC1)N1CC1  0.997
 8                     O=C(Nc1nncs1)c1ccncc1  0.995
 9       CC(=O)Nc1ccc(S(=O)(=O)Nc2ncccn2)cc1   1.01
10                     O=c1[nH]cnc2[nH]ncc12   1.03
11  CCCCC[C@H](CC(=O)NO)C(=O)N[C@H](C(=O)N1CCC[C@H]1CO)C(C)C   1.04

====

# protocol_details: chemical genetic growth profiling, strain panel (AID 1159580)
# condition_parameters: S. cerevisiae deletion strains, growth OD, locus YJR066W, strain TOR1
Screen size: about 5,500 compounds; about 2,000 (36%) were called active. Inconclusive results (about 18%) are left out. Cut-off read from the data, not from the text of the source: active = normalized growth mostly below about 0.91 (no sharp cut-off); inconclusive = no clear call, values can overlap the other calls; inactive = mostly above about 0.92. This is one part of the list.
Labels: active, inactive

> print(dat)
                        structure.as.smiles  class.name
1                   N[C@H](Cc1ccccc1)C(=O)O    inactive
2  O=C(O)Cc1cc(I)c(Oc2cc(I)c(O)c(I)c2)c(I)c1    inactive
3     CN1CCN(C2=Nc3ccccc3Oc3ccc(Cl)cc32)CC1    inactive
4  CS(=O)(=O)c1sc(C(=O)Sc2ccc(Cl)cc2)c2c1C=CCC2      active
5             O=C(Nc1cccc2ccccc12)c1ccccc1O      active
6      Clc1ccc2c(c1)C(N1CCNCC1)=Nc1ccccc1O2    inactive

====

# protocol_details: chemical genetic growth profiling, strain panel (AID 1159580)
# condition_parameters: S. cerevisiae deletion strains, growth OD, locus YOR136W, strain idh2, hits give low values
About 2,000 (36%) of roughly 5,500 compounds were called active. Roughly 18% stayed inconclusive and do not appear here. The list shows a part of the results.
Under this convention, 1 (yes) denotes normalized growth strictly below 1 and 0 (no) denotes normalized growth at or above 1.

molecule	class_name
CCCC(CCC)C(=O)O	1 (yes)
NC(Cc1ccc(F)cc1)C(=O)O (centres undefined)	0 (no)
N[C@H](Cc1cc(I)c(Oc2ccc(O)c(I)c2)c(I)c1)C(=O)O	1 (yes)
O=c1cc(-c2ccccc2)oc2c(O)c(O)ccc12	1 (yes)
CC(CN1c2ccccc2Sc2ccccc21)N(C)C (centres undefined)	1 (yes)
CCN(CC)C(C)CN1c2ccccc2Sc2ccccc21 (centres undefined)	1 (yes)
C[C@H](CCC(=O)O)[C@H]1CCC2C3C(CC[C@@]21C)[C@@]1(C)CC[C@@H](O)C[C@H]1C[C@H]3O (some centres undefined)	0 (no)

====

# protocol_details: chemical genetic growth profiling, strain panel (AID 1159580);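 further: tested at 20 µM; growth read once vehicle control cultures reached saturation at 30 °C; 1 = growth at the plate median or of vehicle wells; lower values mean less growth of the strain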
# condition_parameters: S. cerevisiae deletion strains, growth OD, locus YER111C, strain swi4, hits give low values
About 2,000 (36%) of roughly 5,500 compounds were called active. Roughly 18% stayed inconclusive and do not appear here. This is one part of the list.
Collected normalized growth values appear next to each entry.
value_type: normalized growth

> print(dat)
                                   compound         value.type  value
1               CC12CC3CC(C)(C1)CC(N)(C3)C2  normalized growth  0.983
2  COC(=O)CCC(C)C1CCC2C3CC[C@@H]4C[C@H](O)CC[C@]4(C)C3C[C@H](O)[C@]12C (some centres undefined)  normalized growth  0.996
3                           CCCC(CCC)C(=O)O  normalized growth   1.02
4  CC(CCC(=O)O)[C@H]1CCC2C3CC[C@@H]4C[C@H](O)CC[C@]4(C)C3C[C@H](O)[C@@]21C (some centres undefined)  normalized growth      1
5  CC[C@H](CCC(C)[C@H]1CCC2C3CCC4C[C@@H](O)CC[C@]4(C)C3CC[C@@]21C)C(C)C (some centres undefined)  normalized growth  0.992
6  CC(CCC(=O)O)[C@H]1CCC2C3CC[C@@H]4CCCC[C@]4(C)C3CC[C@@]21C (some centres undefined)  normalized growth   1.02
7  CCCCS(=N)(=O)CCC(N)C(=O)O (centres undefined)  normalized growth  0.983
8  CC(CCC(=O)O)[C@H]1CCC2C3C(C[C@H](O)[C@@]21C)[C@@]1(C)CC[C@@H](O)C[C@H]1C[C@H]3O (some centres undefined)  normalized growth   1.03
9  COC(=O)CCC(C)[C@H]1CCC2C3C(C[C@H](O)[C@@]21C)[C@@]1(C)CC[C@@H](O)C[C@H]1C[C@H]3O (some centres undefined)  normalized growth   1.01

====

# protocol_details: chemical genetic growth profiling, strain panel (AID 1159580);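 further: tested at 20 µM; growth read once vehicle control cultures reached saturation at 30 °C; 1 = growth at the plate median or of vehicle wells; lower values mean less growth of the strain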
# condition_parameters: S. cerevisiae deletion strains, growth OD, locus YGL240W, strain doc1, hits give low values
The campaign covered roughly 5,500 compounds. About 2,000 (36%) were called active. Roughly 18% stayed inconclusive and do not appear here. This is one part of the list.

compound	normalized growth
COC(=O)CCC(C)C1CCC2C3CC[C@@H]4C[C@H](O)CC[C@]4(C)C3C[C@H](O)[C@]12C (some centres undefined)	0.928
C[C@H](CCC(=O)O)[C@H]1CCC2C3C(CC[C@@]21C)[C@@]1(C)CC[C@@H](O)C[C@H]1C[C@@H]3O (some centres undefined)	0.982
O=c1cc(-c2ccccc2)oc2cc(O)c(O)c(O)c12	0.657
CC(=O)O[C@H]1C[C@@H](OC(C)=O)C(C)(C)C2CC(=O)[C@]3(C)C(CC[C@@]4(C)[C@H](c5ccoc5)OC(=O)[C@H]5O[C@]543)[C@]21C (some centres undefined)	1.01
Cc1cc(O)c(C=O)c2c1C(=O)Oc1c(COC(=O)/C=C/C(=O)O)c(O)c(C(=O)O)c(C)c1O2	1.06
NC(=O)c1ncn(C2O[C@H](CO)[C@@H](O)[C@H]2O)c1N (some centres undefined)	1.06
CC(CN(C)C)CN1c2ccccc2CCc2ccccc21 (centres undefined)	0.969
CC1(C)C(O)CC(O)C2(C)C1CC(O)C1(C)C2CCC2(C)C(c3ccoc3)OC(=O)C3OC321 (centres undefined)	1.02
CCN(CC)C(C)CN1c2ccccc2Sc2ccccc21 (centres undefined)	0.799
CNCCCN1c2ccccc2CCc2ccccc21	1.06
CC(CCC(=O)O)[C@H]1CCC2C3C(C[C@H](O)[C@@]21C)[C@@]1(C)CC[C@@H](O)C[C@H]1C[C@H]3O (some centres undefined)	1.01
COc1cc([C@H]2Oc3cc([C@H]4Oc5cc(O)cc(O)c5C(=O)[C@@H]4O)ccc3O[C@@H]2CO)ccc1O	1.03
Cc1cc(=O)oc2c(O)c(O)ccc12	0.979
CC(CN(C)C)CN1c2ccccc2Sc2ccccc21 (centres undefined)	1.03
CC(CCC(=O)O)[C@H]1CCC2C3CC[C@@H]4C[C@H](O)CC[C@]4(C)C3C[C@H](O)[C@@]21C (some centres undefined)	1.01
CN[C@@H]1[C@H](OC2[C@H](O[C@H]3[C@H](O)[C@@H](O)[C@H](N=C(N)N)[C@@H](O)[C@@H]3N=C(N)N)O[C@@H](C)[C@]2(O)C=O)O[C@@H](CO)[C@H](O)[C@H]1O (some centres undefined)	1.05
CC(=O)Nc1nnc(S(N)(=O)=O)s1	1.01
CC(CCC(=O)O)[C@H]1CCC2C3C[C@H](O)[C@@H]4C[C@H](O)CC[C@]4(C)C3CC[C@@]21C (some centres undefined)	1.02
O=c1cc(-c2ccccc2)oc2c(O)c(O)ccc12	0.956

====

# protocol_details: chemical genetic growth profiling, strain panel (AID 1159580);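 further: tested at 20 µM; growth read once vehicle control cultures reached saturation at 30 °C; 1 = growth at the plate median or of vehicle wells; lower values mean less growth of the strain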
# condition_parameters: S. cerevisiae deletion strains, growth OD, locus YLR039C, strain RIC1, hits give low values
About 2,000 (36%) of roughly 5,500 compounds were called active. Inconclusive results (about 18%) are left out. The list shows a part of the results.
Under this convention, true denotes normalized growth strictly below 1 and false denotes normalized growth at or above 1.

> print(dat)
                                    molecule  class.name
 1  COc1cc2c(cc1O)C(Cc1ccc(O)cc1)N(C)CC2 (centres undefined)       false
 2                     COc1c2ccccc2nc2occc12        true
 3                           CCCC(CCC)C(=O)O        true
 4  CC(CN1c2ccccc2Sc2ccccc21)N(C)C (centres undefined)       false
 5                  COc1c(Cl)ccc(Cl)c1C(=O)O       false
 6                                   NC(N)=O       false
 7  CC(CN1c2ccccc2Sc2cccnc21)N(C)C (centres undefined)       false
 8  CCCCCC1C(=O)CCC1CC(=O)OC (centres undefined)       false
 9  Cc1cc(C)cc(OCC2CNC(=O)O2)c1 (centres undefined)       false
10  COc1cc(C)c(C(=O)Oc2cc(C)c(C(=O)O)c(O)c2C)c(OC)c1C       false
11  COc1ccc(CCNC(=S)NCCc2ccc(OC)c(OC)c2)cc1OC       false
12  O=c1c2cc(NS(=O)(=O)c3ccc(Cl)cc3)ccc2oc2ncccc12       false
13      Clc1ccc2c(c1)C(N1CCNCC1)=Nc1ccccc1O2       false
14                COc1ccc(C(=O)N2CCCC2=O)cc1        true
15  OC1(c2ccc(Cl)cc2)CSc2nc3cc(C(F)(F)F)ccc3n21 (centres undefined)       false
16  FC(F)(F)c1cc(-n2c(CCc3nc(-c4ccc(Cl)cc4)no3)n[nH]c2=S)cc(C(F)(F)F)c1       false
